# Test system: 1A9
# protocol_description: Antitumor activity against human 1A9 cells
# Type: functional, cell-based
Cut-off 4 µg/mL on EC50: below means YES, at or above means NO.

- compound: "CC1=C(C)C(=O)OC([C@](C)(O)[C@]2(O)[C@@H](O)C[C@@]3(O)[C@@H]4C[C@@H](O)[C@@]5(O)[C@@H](O)C=CC(=O)[C@]5(C)[C@H]4CC[C@]23C)C1 (stereo not given in full)"
  target_or_system: "1A9"
  assigned_category: "NO"
- compound: "CC1=C(C)C(=O)OC([C@](C)(O)[C@]2(O)C[C@H](O)[C@@]3(O)[C@@H]4C[C@H]5O[C@]56[C@@H](O)C=CC(=O)[C@]6(C)[C@H]4CC[C@@]32C)C1 (stereo not given in full)"
  target_or_system: "1A9"
  assigned_category: "YES"
- compound: "CO[C@H]1C[C@@](O)([C@@](C)(O)C2CC(C)=C(C)C(=O)O2)[C@@]2(C)CC[C@H]3[C@@H](C[C@H]4O[C@]45[C@@H](O)CCC(=O)[C@]35C)[C@]12O (stereo not given in full)"
  target_or_system: "1A9"
  assigned_category: "NO"
- compound: "CO[C@@H]1CC(=O)[C@@]2(C)[C@@H](CC[C@@H]3[C@@H]2CC[C@@]2(O)C(=O)O[C@@]4(C)[C@H]5C[C@@]6(C)C7C(=O)[C@@]3(OC[C@H]6C(=O)O5)O[C@]724)C1"
  target_or_system: "1A9"
  assigned_category: "NO"
- compound: "CO[C@H]1CC(=O)[C@]2(C)[C@H]3CC[C@]4(C)[C@](O)([C@@](C)(O)C5CC(C)=C(C)C(=O)O5)[C@@H](O)C[C@@]4(O)[C@@H]3C[C@H]3O[C@]32C1 (stereo not given in full)"
  target_or_system: "1A9"
  assigned_category: "YES"

Cited source: ChEMBL document CHEMBL1145449
